Source listed as paper PMC6114103.

Tested on: NIH/3T3 cells
Test: cytotoxicity (drug-exposure viability) assay, CCK-8
Format: cell-based, mouse
Details: NIH/3T3, 24 h exposure, CCK-8; read-out: IC50 on cell line NIH/3T3
pIC50: −log10 of the molar value.

[
  {
    "compound": "CC(=O)NCC(=O)O.CC(=O)NCC(=O)O.N=C(N)c1ccc(N=NNc2ccc(C(=N)N)cc2)cc1 [DA, diminazene aceturate]",
    "pIC50": "< 4.40"
  }
]

###

Tested on: MDBK cells
Assay: cytotoxicity (drug-exposure viability) assay, CCK-8
Assay type: cell-based, bovine
Conditions: MDBK, 24 h exposure, CCK-8; read-out: IC50 on cell line MDBK
pIC50: −log10 of the molar value.
measured.quantity: pIC50

[
  {
    "molecule": "CC(=O)NCC(=O)O.CC(=O)NCC(=O)O.N=C(N)c1ccc(N=NNc2ccc(C(=N)N)cc2)cc1 [DA, diminazene aceturate]",
    "endpoint.result": "< 4.40"
  }
]
